Assay: plasmodial surface anion channel blockers, osmotic lysis – cell-based, P. falciparum Indochina, OD700, 1 h, primary screen (AID 1154)
Conditions: P. falciparum Indochina infected RBC osmotic lysis, called active from +8 up or from −8 down
The source made the active and inactive calls.
Output constraint: value belongs to active, inactive

Solved entries (count: 2):
INSERT INTO results (compound, cat) VALUES
  ('CN1C(=O)C2C=CC(C(O)c3ccc(F)cc3)N(N3CCCCC3)C2C1=O (centres undefined)', 'inactive'),
  ('CCOC(=O)C[C@H]1[C@H](OC(=O)Cc2ccc3c(c2)OCO3)[C@@H](NC(=O)c2ccccc2)c2cc(OCCCO)ccc2N1C(=O)c1ccccc1', 'inactive');

I'd appreciate the recorded outcome for COCCCNC(=O)[C@]1(Cc2ccccc2CN=[N+]=[N-])N=C(c2ccc(OCCCO)cc2)O[C@@H]1c1ccccc1CN=[N+]=[N-] from this test.
active

What is the recorded call for this compound in the test? O=C(O)[C@@]1(Cc2ccccc2)COC(c2ccc(OCCCO)cc2)=N1
inactive

Outcome logged for O=C1O[C@H](c2ccccc2)[C@H](c2ccccc2)N2[C@H]1[C@@H](C(=O)N1CCCCCCC1)[C@]1(C(=O)Nc3ccc(C#CCCO)cc31)[C@H]2c1ccc(OCCO)cc1 in this assay:
active

I would be grateful if you could indicate the recorded call for CC(C)C[C@H]1NC(=O)[C@H](C)NC(=O)[C@@]23C(=O)N[C@@H](Cc4ccccc4)C2[C@H](C)[C@@]2(C)O[C@H]2C3/C=C/C/C=C\CNC1=O (some centres undefined) .
inactive

What did this assay record as the result for CC(C)c1ccc(NN2C(C(O)c3cccs3)C=CC3C(=O)N(c4ccccc4)C(=O)C32)cc1 (centres undefined) ?
inactive

Query: recorded result category for Cc1ccc(S[C@]2(C(=O)NCCN3CCOCC3)CC(=O)N(C3Cc4ccccc4C3)[C@@H]2c2ccc(CO)cc2)cc1 in this test
inactive

* * *

Assay: blockers of DNA damage checkpoint Chk1 activation – imaging, HeLa, hydroxyurea, phospho-Chk1 nuclear intensity, primary screen (AID 1187); further: test concentration not given here
Details: hydroxyurea-induced phospho-Chk1 immunofluorescence imaging, higher = more signal
Calls of active or inactive are those of the source. The rule behind the calls is not given here.
Quick list: z-score per entry.

INSERT INTO measurements (molecule, experimental_endpoint, value) VALUES
  ('CC(C)CCC[C@@H](C)[C@H]1CC[C@@]2(C)C3=C(CC[C@]12C)[C@@]1(C)CC[C@H](OC(=O)c2ccc(N)cc2)C(C)(C)C1CC3 (some centres undefined)', 'z-score', '-0.736 (inactive)'),
  ('O=C1C2C=CC(C(O)c3ccc(Br)cc3)N(Nc3ccccc3)C2C(=O)N1c1ccccc1 (centres undefined)', 'z-score', '0.453 (inactive)'),
  ('COc1cccc(C[C@H]2C[C@@H](CO[Si](C(C)C)(C(C)C)C(C)C)N3C(=O)[C@]4(C(C)=O)O[C@]23[C@H]2C(=O)N(C)C(=O)[C@H]24)c1', 'z-score', '0.139 (inactive)');

Return z-score for the following molecule: OCCCC1=CC(c2cccs2)N(Cc2cccc(OC(F)(F)F)c2)CC1 (centres undefined)
0.513 (inactive)

* * *

# Lookup of reported z-score keyed by entry
Test: ATP-based viability of Huh7 replicon cells – cell-based, CellTiter-Glo luminescence, basal, 48 h, cytotoxicity control for HCV replication inhibitor project, primary screen (AID 1143);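 further: Huh7 hepatoma cells carrying a hepatitis C replication reporter with no stimulus; test concentration not given here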
Conditions: higher = more signal, called active from +8 up or from −8 down
A bare number is all that is needed in reply.

Worked examples, 5 compounds total:
INSERT INTO results (compound, value) VALUES
  ('COCCCNC(=O)[C@@H]1c2ccccc2C(=O)N(c2ccc(C)cn2)[C@H]1c1ccc(CO)cc1', -0.17),
  ('CCCc1cc2c(n1Cc1ccc(OC)cc1)C(C)C1CN(C(=O)c3ccccc3)C(C)(C(=O)OC)C21 (stereo not given)', -3.08),
  ('COc1cc(C(O)C2C=CC3C(=O)NC(=O)C3N2Nc2ccc(Cl)cc2Cl)cc(OC)c1OC (stereo not given)', 0.127),
  ('CCOC(=O)C1=CC[C@@H](c2cccc(Br)c2)N(S(=O)(=O)c2ccc(C)cc2)[C@H]1c1ccc([N+](=O)[O-])cc1', -2.18),
  ('COC(=O)[C@@]1(Cc2ccccc2N=[N+]=[N-])N=C(c2ccc(OCCCO)cc2)O[C@H]1c1ccccc1', -5.42);

Return value of z-score for input CCCCC(=C=CC[C@H](O)c1cccc(OCCO)c1)C[C@H](O)COCc1ccccc1 , no commentary.
-1.33

Hello, please tell me recorded z-score for this one: CCCCCCC#C[Si](O[C@H](c1ccccc1)c1cn(Cc2cccc(Cl)c2)nn1)(C(C)C)C(C)C
-0.736

Tell us which z-score value is on record for CC(C)C[C@H]1NC(=O)[C@H](C)NC(=O)[C@@]23C(=O)N[C@@H](Cc4ccccc4)C2[C@H](C)[C@@]2(C)O[C@H]2C3/C=C/C/C=C\CNC1=O (stereo not given in full)
0.288

Identify measured z-score associated with [N-]=[N+]=Nc1ccccc1C[C@]1(C(=O)NCCN2CCOCC2)N=C(c2ccc(OCCCO)cc2)O[C@H]1c1ccccc1N=[N+]=[N-]
-3.68

Please report the measured z-score for Cc1ccc(S[C@]2(C(=O)NCCN3CCOCC3)CC(=O)N(C3Cc4ccccc4C3)[C@@H]2c2ccc(CO)cc2)cc1
-0.73

State its z-score: COC(=O)[C@]1(Cc2ccccc2N=[N+]=[N-])N=C(c2ccc(OCCCO)cc2)O[C@@H]1c1ccccc1
-5.29

In one line, give reported z-score of the entry COc1ccc(C#Cc2ccc3c(c2)[C@]2(C(=O)N3)[C@H](c3ccc(OCCO)cc3)N3[C@H](c4ccccc4)[C@H](c4ccccc4)OC(=O)[C@H]3[C@@H]2C(=O)N2CCN(c3ncccn3)CC2)cc1 .
-3.47

Give recorded z-score. COCCOC(=O)N1C(=O)[C@@]2(c3cc(C#CCNC(N)=O)ccc31)[C@H](c1ccc(OCCO)cc1)N1[C@H](c3ccccc3)[C@H](c3ccccc3)OC(=O)[C@H]1[C@@H]2C(=O)N1CCN(c2ncccn2)CC1
0.0075

Fill in z-score for record O=C(Nc1cc(Br)ccc1C(=O)NCc1cccc(O)c1)c1ccccc1
-2.32

Please list z-score recorded for the compound CCN(CC)c1ccc(N2CC=CC34O[C@@H]5/C=C\CCCOC(=O)C5[C@H]3C(=O)N(CCCCCCO)[C@@H]4C2=O)cc1 (stereo not given in full)
-0.0416

* * *

Reported composite z-score is given for each of the following molecules.
Target: Concanavalin-A (Canavalia ensiformis) (UniProt P02866)
Sequence (P02866 whole entry, looked up): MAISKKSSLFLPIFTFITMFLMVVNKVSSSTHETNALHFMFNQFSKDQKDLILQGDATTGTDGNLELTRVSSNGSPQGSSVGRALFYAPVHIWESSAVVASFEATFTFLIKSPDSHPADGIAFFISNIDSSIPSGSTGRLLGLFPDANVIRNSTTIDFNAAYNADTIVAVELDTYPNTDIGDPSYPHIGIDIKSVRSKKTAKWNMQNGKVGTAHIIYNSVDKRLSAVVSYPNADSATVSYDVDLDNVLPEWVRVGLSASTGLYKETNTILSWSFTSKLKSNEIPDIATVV
Experiment: compounds binding concanavalin A lectin – biochemical, small-molecule microarray, Alexa647 label, 635 nm, artefact control for SMM control protein annotation, primary screen (AID 1127);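 further: z combines 667 nm emission intensity with signal-to-noise across three replicate slides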
Conditions: ConA-A647 binding fluorescence, higher = more signal
Number, no unit, nothing else.

Observe how each entry below is paired with its result.
INSERT INTO assay_data (molecule, value) VALUES
  ('C=CCC(OC(C)=O)[C@@H]1[C@@H](N(Cc2cc3ccccc3o2)C(=O)Cc2ccc(OC)cc2)c2cc(OCCCO)ccc2N1C(=O)c1ccc(-c2ccccc2)cc1 (stereo not given in full)', -1.15),
  ('C=CCOC(=O)[C@@H]1[C@H]2C(=O)O[C@H](c3ccccc3)[C@H](c3ccccc3)N2[C@H](c2ccc(OCCOC(=O)[C@H]3C[C@H]4C(=O)N[C@@H](Cc5ccccc5)C(=O)N4[C@H]3c3cccc(OCCO)c3)cc2)[C@@]12C(=O)Nc1ccc(I)cc12', 1.11),
  ('COc1cc2c(cc1OC)CN(C(=O)[C@@H]1[C@H]3C(=O)O[C@H](c4ccccc4)[C@H](c4ccccc4)N3[C@H](c3ccc(O)cc3)[C@@]13C(=O)Nc1ccc(C#CCNC(N)=O)cc13)CC2', 0.826),
  ('COc1ccc([Si](C)(C)[C@@H]2[C@@H](CC(=O)N(CCO)Cc3ccccc3)O[C@]3(C(=O)N(Cc4ccc(N5CCOC5=O)cc4)c4ccccc43)[C@H]2C)cc1', 1.08);

Fill in composite z-score for record CN(C)C(=O)[C@@]1(CCC(=O)OC(C)(C)C)N=C(c2ccc(OCCCO)cc2)O[C@H]1c1ccccc1N=[N+]=[N-]
1.11

* * *

Tested on: PRMT1 (protein arginine N-methyltransferase 1)
Test: small molecules binding arginine methyltransferase PRMT1 – biochemical, small-molecule microarray, 635 nm fluorescence, primary screen (AID 1088);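 further: binding of Prmt1 protein to compounds spotted on small-molecule microarray slides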
Conditions: higher = more signal
EXPERIMENTAL ENDPOINT: composite z-score
Give only the figure.

Consider the following illustrative entries.
INSERT INTO measurements (molecule, experimental_endpoint, value) VALUES
  ('CN1C(=O)C2C=CC(C(O)COCc3ccccc3)N(Nc3ccccc3)C2C1=O (configuration not stated)', 'composite z-score', 0.691),
  ('CN(C)CCCC[C@@H]1NC(=O)[C@H]2C[C@@H](C(=O)NCCCCCCNC(=O)CS)[C@@H](c3ccc(O)cc3)N2C1=O', 'composite z-score', 1.17),
  ('COC(=O)C(CC#Cc1ccc2c(c1)[C@]1(C(=O)N2)[C@H](c2ccccc2OCCO)N2[C@H](c3ccccc3)[C@H](c3ccccc3)OC(=O)[C@H]2[C@@H]1C(=O)Nc1nc2ccccc2s1)C(=O)OC', 'composite z-score', 1.52),
  ('CC(C)N1CC=CC23O[C@@H]4C=CCOC(=O)[C@@H]4[C@H]2C(=O)N(CCCCCCO)[C@@H]3C1=O (some centres not stated)', 'composite z-score', 0.0483),
  ('CC(C)(C)OC(=O)CC[C@]1(C(=O)O)COC(c2ccc(OCCCO)cc2)=N1', 'composite z-score', -1.22);

Give composite z-score only, for [N-]=[N+]=NCc1ccccc1[C@H]1OC(c2ccc(OCCCO)cc2)=N[C@@]1(Cc1ccccc1N=[N+]=[N-])C(=O)NCCN1CCOCC1 , using PRMT1 (protein arginine N-methyltransferase 1) data.
1.54

Name the recorded composite z-score of COc1cc2c(cc1OC)CN(C(=O)[C@@H]1[C@H]3C(=O)O[C@H](c4ccccc4)[C@H](c4ccccc4)N3[C@H](c3ccc(O)cc3)[C@@]13C(=O)Nc1ccc(C#CCNC(N)=O)cc13)CC2 , assay system PRMT1 (protein arginine N-methyltransferase 1).
0.666
